# tgt: human GLP-1R (Homo sapiens)
# Sequence (P43220 24-463): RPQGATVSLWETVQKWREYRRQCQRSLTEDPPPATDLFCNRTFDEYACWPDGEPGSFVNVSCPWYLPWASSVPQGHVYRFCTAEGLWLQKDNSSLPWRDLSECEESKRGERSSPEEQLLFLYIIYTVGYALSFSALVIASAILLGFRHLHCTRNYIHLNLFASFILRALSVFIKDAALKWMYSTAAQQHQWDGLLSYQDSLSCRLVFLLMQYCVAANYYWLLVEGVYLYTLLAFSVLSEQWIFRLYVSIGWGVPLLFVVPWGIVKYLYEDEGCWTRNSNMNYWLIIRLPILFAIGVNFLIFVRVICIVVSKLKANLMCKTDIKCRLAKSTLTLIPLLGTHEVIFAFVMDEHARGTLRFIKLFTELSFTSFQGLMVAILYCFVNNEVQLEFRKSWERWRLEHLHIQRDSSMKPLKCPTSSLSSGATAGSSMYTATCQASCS
# experimentalDetails: cell-based
Where no end group is shown, it is not given here.
observable: pEC50
Field pEC50 (float): negative decimal logarithm of the concentration in molar.

[in] Given the sequence HGEGTFTSDVSSYLEGQAAKEFIAWLVKGRGPGVLGGGCRCIPALDSLTPANED (cysteines drawn unpaired) [PGLP-1-VP] , what is its reported pEC50?
[out] 6.86
